Entry source: PubChem BioAssay (NCI)

- System: OVCAR-5 ovarian
- TEST_METHOD_NOTES: NCI tumour cell line growth inhibition, 48 h

>  <COMPOUND>
O/N=C1/COC(C(F)(F)F)(C(F)(F)F)C1

>  <MEASURED_TARGET>
OVCAR-5 ovarian

>  <ENDPOINT_UNIT>
µM

>  <REL>
>

>  <TGI>
100

$$$$
>  <COMPOUND>
C[C@]12C=CC(=O)C=C1CC[C@H]1[C@@H]3C[C@@H](O)[C@](O)(C(=O)CO)[C@@]3(C)C[C@H](O)[C@@]12F

>  <MEASURED_TARGET>
OVCAR-5 ovarian

>  <ENDPOINT_UNIT>
µM

>  <REL>
>

>  <TGI>
100

$$$$
>  <COMPOUND>
Cc1ccc(Cl)cc1Nc1nc(C(F)(F)F)ccc1C(=O)N1CCN(c2ccc(F)cc2)CC1

>  <MEASURED_TARGET>
OVCAR-5 ovarian

>  <ENDPOINT_UNIT>
µM

>  <REL>
=

>  <TGI>
30.1

$$$$
>  <COMPOUND>
CCOC(=O)C1(Cc2ccc3c(c2)CCC3)Cc2cc3c(cc2C1)CCC3

>  <MEASURED_TARGET>
OVCAR-5 ovarian

>  <ENDPOINT_UNIT>
µM

>  <REL>
>

>  <TGI>
100

$$$$
>  <COMPOUND>
C[N+](C)([O-])CCC=C1c2ccccc2CCc2ccccc21

>  <MEASURED_TARGET>
OVCAR-5 ovarian

>  <ENDPOINT_UNIT>
µM

>  <REL>
>

>  <TGI>
100

$$$$
>  <COMPOUND>
CCCCCN=Cc1c(O)c(O)c(C(C)C)c2cc(C)c(-c3c(C)cc4c(C(C)C)c(O)c(O)c(C=NCCCCC)c4c3O)c(O)c12

>  <MEASURED_TARGET>
OVCAR-5 ovarian

>  <ENDPOINT_UNIT>
µM

>  <REL>
>

>  <TGI>
100

$$$$
>  <COMPOUND>
CC1=C(C#N)C(C#N)(C#N)C(NN(C)C)C1 (stereo not given)

>  <MEASURED_TARGET>
OVCAR-5 ovarian

>  <ENDPOINT_UNIT>
µM

>  <REL>
=

>  <TGI>
47.4

$$$$
>  <COMPOUND>
CCCCc1c(OC)cc(O)c2c1C(=O)c1[nH]c(C(=O)O)c(O)c(=O)c1C2=O

>  <MEASURED_TARGET>
OVCAR-5 ovarian

>  <ENDPOINT_UNIT>
µM

>  <REL>
=

>  <TGI>
65.3

$$$$
>  <COMPOUND>
COc1ccc(N2C(=O)C(c3ccccc3)(c3ccccc3)C23C(=O)N(C)c2ccccc23)cc1 (stereo not given)

>  <MEASURED_TARGET>
OVCAR-5 ovarian

>  <ENDPOINT_UNIT>
µM

>  <REL>
>

>  <TGI>
100

$$$$
>  <COMPOUND>
N#CSC#Cc1ccc(C#CSC#N)cc1

>  <MEASURED_TARGET>
OVCAR-5 ovarian

>  <ENDPOINT_UNIT>
µM

>  <REL>
=

>  <TGI>
34.9

$$$$

---

- Tested on: HS 578T breast
- TEST_METHOD_NOTES: NCI tumour cell line growth inhibition, 48 h

>  <MOLECULE>
Cc1ccc(C(SCC(N)C(=O)O)(c2ccccc2)c2ccc(C)cc2)cc1 (stereo not given)

>  <REL>
=

>  <TGI / µM>
2.17

$$$$
>  <MOLECULE>
C=C(C=O)C1CCC2(C(=O)O)CCC3(C)C(CCC4C5(C)CCC(O)C(C)(C)C5CCC43C)C12 (stereo not given)

>  <REL>
>

>  <TGI / µM>
100

$$$$
>  <MOLECULE>
COC(=O)Cc1cc(O)c(C/C=C(\C)CC/C=C(\C)C(O)C(=O)C=C(C)C)cc1O (stereo not given)

>  <REL>
>

>  <TGI / µM>
100

$$$$
>  <MOLECULE>
CC(=O)OC1Oc2ccccc2-c2oc(=O)c(-c3cc(=O)oc4cc(O)ccc34)cc21 (stereo not given)

>  <REL>
=

>  <TGI / µM>
52

$$$$
>  <MOLECULE>
CC1=C(C#N)C(C#N)(C#N)C(NN(C)C)C1 (stereo not given)

>  <REL>
>

>  <TGI / µM>
100

$$$$
>  <MOLECULE>
COc1cc(-c2cc(=O)c3c(OC)c(OC)c(OC)c(OC)c3o2)c(OC)c(OC)c1OC

>  <REL>
>

>  <TGI / µM>
100

$$$$
>  <MOLECULE>
O=[N+]([O-])c1ccc(/C=N/n2c(CO)nc3ccccc32)o1

>  <REL>
=

>  <TGI / µM>
35.6

$$$$
>  <MOLECULE>
C[C@]12CC[C@H](O)CC1=CC[C@@H]1[C@@H]2CC[C@]2(C)C(=O)[C@@H](N3CCOCC3)C[C@@H]12

>  <REL>
>

>  <TGI / µM>
100

$$$$
>  <MOLECULE>
C=CC(Br)(CBr)CCC(Cl)C(C)C (stereo not given)

>  <REL>
=

>  <TGI / µM>
8.01

$$$$
>  <MOLECULE>
NNC(N)Nc1ccccc1 (stereo not given)

>  <REL>
>

>  <TGI / µM>
100

$$$$
>  <MOLECULE>
CCc1nc(N)nc(N)c1-c1ccc(Cl)c(Cl)c1

>  <REL>
>

>  <TGI / µM>
100

$$$$
>  <MOLECULE>
NC(Cc1cccc([N+](=O)[O-])c1)C(=O)O (stereo not given)

>  <REL>
>

>  <TGI / µM>
100

$$$$
>  <MOLECULE>
C[C@H]1c2cccc(O)c2C(O)=C2C(=O)[C@]3(O)C(O)=C(C(N)=O)C(=O)[C@@H](N(C)C)[C@@H]3[C@@H](O)[C@@H]21

>  <REL>
=

>  <TGI / µM>
27

$$$$
>  <MOLECULE>
COC(=O)c1cc2c(cc1O)[C@@H](NC(C)=O)CCc1cc(OC)c(OC)c(OC)c1-2

>  <REL>
=

>  <TGI / µM>
0.0481

$$$$
>  <MOLECULE>
COCCOc1cc(F)c2c(Nc3ccc(NC(=O)Cn4cc(C(C)C)nn4)cc3)ncnc2c1

>  <REL>
>

>  <TGI / µM>
100

$$$$
